# System: K562
# TEST METHOD NOTES: Antiproliferative activity against human K562 cells after 48 hrs by MTT assay
# Assay type: functional, cell-based
# DETAILS: K562, 48 h
READOUT: pIC50
Schema: pIC50 number; meaning minus log10 of the concentration expressed in molar units.

Data request: # returns recorded pIC50 (system: K562) for `CCN(CC)CCOc1ccc(-c2c(-c3ccc(OCCN(CC)CC)cc3)c3ccc(OCCN(CC)CC)cc3oc2=O)cc1`
Data returned: 4.38

Data request: # returns recorded pIC50 (system: K562) for `O=c1oc2cc(OCCN3CCCC3)ccc2c(-c2ccc(OCCN3CCCC3)cc2)c1-c1ccccc1`
Data returned: 5.34

Data request: # returns recorded pIC50 (system: K562) for `CCN(CC)CCOc1ccc(-c2c(-c3ccccc3)c(=O)oc3cc(OC)ccc23)cc1`
Data returned: 4.05

Data request: # returns recorded pIC50 (system: K562) for `CCN(CC)CCOc1ccc(-c2c(-c3ccccc3)c(=O)oc3cc(OCCN(CC)CC)ccc23)cc1`
Data returned: 5.42

Data request: # returns recorded pIC50 (system: K562) for `COc1ccc2c(-c3ccc(OCCN4CCCC4)cc3)c(-c3ccccc3)c(=O)oc2c1`
Data returned: 4.03

Data request: # returns recorded pIC50 (system: K562) for `O=c1oc2cc(OCCN3CCCC3)ccc2c(-c2ccc(O)cc2)c1-c1ccccc1`
Data returned: 4.35

Data request: # returns recorded pIC50 (system: K562) for `O=c1oc2cc(OCCN3CCCCC3)ccc2c(-c2ccc(O)cc2)c1-c1ccccc1`
Data returned: 4.09

---

# System: DNA
# TEST METHOD NOTES: Binding affinity to calf thymus DNA in phosphate buffer at pH 7.4 assessed as change in melting temperature at 5 uM after 10 mins by thermal denaturation method
# Type: nucleic-acid assay
# DETAILS: Bos taurus
Give measured ΔTm for each item. Keep answers brief.
A number alone suffices; assume °C.

Data request: Item under review: `O=c1oc2cc(OCCN3CCCCC3)ccc2c(-c2ccc(OCCN3CCCCC3)cc2)c1-c1ccc(OCCN2CCCCC2)cc1` . Reported ΔTm?
Data returned: 8.8

Data request: Item under review: `COc1ccc2c(-c3ccc(OCCN4CCCCC4)cc3)c(-c3ccccc3)c(=O)oc2c1` . Reported ΔTm?
Data returned: 3.2

Data request: Item under review: `O=c1oc2cc(OCCN3CCCCC3)ccc2c(-c2ccc(OCCN3CCCCC3)cc2)c1-c1ccccc1` . Reported ΔTm?
Data returned: 4.3

Data request: Item under review: `O=c1oc2cc(OCCN3CCOCC3)ccc2c(-c2ccc(OCCN3CCOCC3)cc2)c1-c1ccccc1` . Reported ΔTm?
Data returned: 2

Data request: Item under review: `O=c1oc2cc(O)ccc2c(-c2ccc(O)cc2)c1-c1ccccc1` . Reported ΔTm?
Data returned: 1.1

---

Give measured Activity for each item. Keep answers brief.
# System: DNA
# TEST METHOD NOTES: Binding affinity to calf thymus DNA in phosphate buffer at pH 7.4 at 5 uM after 10 mins by fluorescence spectroscopy
# Assay type: nucleic-acid assay
# DETAILS: Bos taurus
A number alone suffices; assume ×10² /M.

Data request: Item under review: `O=c1oc2cc(OCCN3CCOCC3)ccc2c(-c2ccc(OCCN3CCOCC3)cc2)c1-c1ccccc1` . Reported Activity?
Data returned: 2.68

Data request: Item under review: `O=c1oc2cc(O)ccc2c(-c2ccc(O)cc2)c1-c1ccccc1` . Reported Activity?
Data returned: 5.41
